system.tested: P450 2C9 (Homo sapiens, UniProt P11712)
Sequence (P11712 whole entry): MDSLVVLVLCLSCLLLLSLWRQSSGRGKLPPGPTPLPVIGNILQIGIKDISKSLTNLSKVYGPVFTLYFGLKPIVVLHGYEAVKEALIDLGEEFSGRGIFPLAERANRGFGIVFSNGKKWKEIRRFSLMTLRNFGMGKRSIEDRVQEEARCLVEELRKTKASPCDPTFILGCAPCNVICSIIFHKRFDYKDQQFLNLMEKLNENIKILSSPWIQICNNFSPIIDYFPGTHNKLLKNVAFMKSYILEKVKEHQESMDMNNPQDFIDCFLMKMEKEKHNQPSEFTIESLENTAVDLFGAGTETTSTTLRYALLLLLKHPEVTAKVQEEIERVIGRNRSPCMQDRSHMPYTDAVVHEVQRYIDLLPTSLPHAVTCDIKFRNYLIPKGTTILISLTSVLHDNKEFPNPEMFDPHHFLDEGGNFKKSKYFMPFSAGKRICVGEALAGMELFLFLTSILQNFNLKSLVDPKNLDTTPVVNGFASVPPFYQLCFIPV
assay.comment: P450 inhibition at 10 μM
Type: in vitro ADME
Let's look at some molecules and their measured P450 % inh. at 10 μM 2C9.
State just the number; it will be interpreted in %.

> print(dat)
                                   molecule        parameter.measured  val
1  Cc1[nH]c2ncnc(-c3ccc(NC(=O)Nc4cccc(C(=O)NC(C)C)c4)cc3)c2c1C  P450 % inh. at 10 μM 2C9   42

Task: What value of P450 % inh. at 10 μM 2C9 has been reported for the following molecule? Cc1ccc(N(CCO)C(=O)Nc2ccc(-c3ncnc4[nH]cc(C)c34)cc2)cc1 [Compound 18k]
Output: 24

Task: And for Cc1c[nH]c2ncnc(-c3ccc(NC(=O)N(CCO)c4ccccc4)cc3)c12 [Compound 18b] ?
Output: 14

Task: And for COCCN(C(=O)Nc1ccc(-c2ncnc3[nH]c(C)c(C)c23)cc1F)c1ccc(Cl)cc1 [Compound 18x] ?
Output: 50

Task: And for Cc1c[nH]c2ncnc(-c3ccc(NC(=O)N(CCO)c4ccc(F)cc4)cc3)c12 [Compound 18e] ?
Output: 13

Task: And for Cc1[nH]c2ncnc(-c3ccc(NC(=O)N(CCN)c4ccc(Cl)cc4)c(F)c3)c2c1C [Compound 18t] ?
Output: 24

Task: And for COc1cccc(N(CCO)C(=O)Nc2ccc(-c3ncnc4[nH]cc(C)c34)cc2)c1 [Compound 18m] ?
Output: 17

Task: And for Cc1c[nH]c2ncnc(-c3ccc(NC(=O)N(CCO)c4ccc(Cl)cc4)cc3)c12 [Compound 18h] ?
Output: 23

Task: And for Cc1c[nH]c2ncnc(-c3ccc(NC(=O)N(CCO)c4ccccc4Cl)cc3)c12 [Compound 18f] ?
Output: 39

---

system.tested: Limk1 (Homo sapiens)
Sequence (P53667 285-638): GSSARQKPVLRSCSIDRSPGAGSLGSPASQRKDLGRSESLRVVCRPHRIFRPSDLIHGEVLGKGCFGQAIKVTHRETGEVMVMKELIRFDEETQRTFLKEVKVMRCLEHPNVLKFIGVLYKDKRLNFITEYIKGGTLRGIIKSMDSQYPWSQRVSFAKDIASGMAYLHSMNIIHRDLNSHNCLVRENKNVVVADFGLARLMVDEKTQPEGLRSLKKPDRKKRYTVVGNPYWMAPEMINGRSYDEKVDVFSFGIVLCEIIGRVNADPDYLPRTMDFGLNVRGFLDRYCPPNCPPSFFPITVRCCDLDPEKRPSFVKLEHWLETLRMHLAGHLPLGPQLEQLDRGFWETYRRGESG
assay.comment: Limk1 biochemical assay (Reaction Biology, 10-dose IC50)
Set-up: His; purchased Reaction Biology Corporation; host or cells: insect cells
study.conditions: Table 4; means of ≥2 experiments; read-out: IC50 (nM) Limk1
Let's look at some compounds and their measured IC50.
State just the number; it will be interpreted in nM.

> print(dat)
                                   compound  unit.of.measurement  val
1  Cc1ccc(N(CCO)C(=O)Nc2ccc(-c3ncnc4[nH]cc(C)c34)cc2)cc1 [Compound 18k]                   nM   37
2  COc1ccc(N(CCO)C(=O)Nc2ccc(-c3ncnc4[nH]cc(C)c34)cc2)cc1 [Compound 18n]                   nM   53
3  COc1cccc(N(CCO)C(=O)Nc2ccc(-c3ncnc4[nH]cc(C)c34)cc2)c1 [Compound 18m]                   nM  100

Now look at this one.
Task: What value of IC50 has been reported for the following compound? COc1ccc(N(CCN)C(=O)Nc2ccc(-c3ncnc4[nH]cc(C)c34)cc2)cc1 [Compound 18o]
Output: 27

---

assay.comment: Plasma pharmacokinetics studies on rats
study.conditions: rats; po dosing 2 mg/kg
parameter.measured: F (%) (po)
State just the number; it will be interpreted in %.

Task: What value of F (%) (po) has been reported for the following molecule? COc1ccc(N(CCN)C(=O)Nc2ccc(-c3ncnc4[nH]cc(C)c34)cc2)cc1 [Compound 18o]
Output: 0

Task: And for Cc1c[nH]c2ncnc(-c3ccc(NC(=O)Nc4cccc(C(=O)NC(C)C)c4)cc3)c12 [Compound 7g] ?
Output: 0

---

Tested on: cofilin phosphorylation in A7r5 cells
assay.comment: In-cell Western assay of cofilin phosphorylation in A7r5 cells
Type: cell-based
study.conditions: A7R5, A7r5 cells; read-out: Cofilin Phosphorylation In A7r5 Cells (IC50)
parameter.measured: pIC50
FYI, pIC50 means -log10 of a concentration in mol per litre.

Sample answers from the record:
> print(dat)
                                   compound  parameter.measured   val
1  Cc1c[nH]c2ncnc(-c3ccc(NC(=O)N(CCO)c4ccccc4)cc3)c12 [Compound 18b]               pIC50  6.33
2  COCCN(C(=O)Nc1ccc(-c2ncnc3[nH]c(C)c(C)c23)cc1F)c1ccc(Cl)cc1 [Compound 18x]               pIC50  6.60

Now look at this one.
Task: What value of pIC50 on cofilin phosphorylation in A7r5 cells does Cc1[nH]c2ncnc(-c3ccc(NC(=O)N(CCN(C)C)c4ccc(Cl)cc4)c(F)c3)c2c1C [Compound 18w] have?
Output: 6.49

---

system.tested: Limk1 (Homo sapiens)
assay.comment: Limk1 biochemical assay (Reaction Biology, 10-dose IC50)
Parameters: His; purchased Reaction Biology Corporation; host or cells: insect cells
study.conditions: Table 3; means of ≥2 experiments; read-out: IC50 (nM) Limk1
parameter.measured: IC50 (nM)
State just the number; it will be interpreted in nM.

Sample answers from the record:
> print(dat)
                                   compound         system.tested  unit.of.measurement   val
1  Cc1c[nH]c2ncnc(-c3ccc(NC(=O)Nc4nccs4)cc3)c12 [Compound 10f]  Limk1 (Homo sapiens)                   nM   203
2  Cc1c[nH]c2ncnc(-c3ccc(NC(=O)Nc4ccccn4)cc3)c12 [Compound 10g]  Limk1 (Homo sapiens)                   nM  4510

Task: What value of IC50 has been reported for the following compound? COc1cccc(NC(=O)Nc2ccc(-c3ncnc4[nH]cc(C)c34)cc2)c1 [Compound 10d]
Output: 75

---

assay.comment: Plasma pharmacokinetics studies on rats
study.conditions: rats; iv dosing 1 mg/kg
Kindly return class 1 if reported T1/2 (iv) is no lower than 3 h; return class 0 if it is lower.

Observe how each entry below is paired with its result.
> print(dat)
                                   compound  answer.label
1  COc1ccc(N(CCO)C(=O)Nc2ccc(-c3ncnc4[nH]cc(C)c34)cc2)cc1 [Compound 18n]       class 0
2  Cc1c[nH]c2ncnc(-c3ccc(NC(=O)N(CCO)c4ccc(Cl)cc4)cc3)c12 [Compound 18h]       class 0
3  COc1ccc(N(CCN)C(=O)Nc2ccc(-c3ncnc4[nH]cc(C)c34)cc2)cc1 [Compound 18o]       class 1
4  Cc1c[nH]c2ncnc(-c3ccc(NC(=O)N(CCN)c4ccc(Cl)cc4)cc3)c12 [Compound 18p]       class 1
5  Cc1c[nH]c2ncnc(-c3ccc(NC(=O)N(CCN(C)C)c4ccc(Cl)cc4)cc3)c12 [Compound 18r]       class 1

Task: # check: T1/2 (iv) of Cc1c[nH]c2ncnc(-c3ccc(NC(=O)Nc4cccc(C(=O)NC(C)C)c4)cc3)c12 [Compound 7g] is greater than or equal to 3 h
Output: class 0

Task: And for Cc1c[nH]c2ncnc(-c3ccc(NC(=O)N(CCO)c4ccccc4)cc3)c12 [Compound 18b] ?
Output: class 0

Task: And for Cc1c[nH]c2ncnc(-c3ccc(NC(=O)Nc4cccc(C(=O)NC(C)C)c4)c(F)c3)c12 [Compound 7k] ?
Output: class 0

Task: And for Cc1[nH]c2ncnc(-c3ccc(NC(=O)N(CCO)c4ccc(Cl)cc4)c(F)c3)c2c1C [Compound 18s] ?
Output: class 1

Task: And for COCCN(C(=O)Nc1ccc(-c2ncnc3[nH]c(C)c(C)c23)cc1F)c1ccc(Cl)cc1 [Compound 18x] ?
Output: class 1

Task: And for Cc1c[nH]c2ncnc(-c3ccc(NC(=O)Nc4ccccc4)cc3)c12 [Compound 10a] ?
Output: class 0

Task: And for Cc1ccc(N(CCO)C(=O)Nc2ccc(-c3ncnc4[nH]cc(C)c34)cc2)cc1 [Compound 18k] ?
Output: class 0

Task: And for Cc1[nH]c2ncnc(-c3ccc(NC(=O)N(CCN(C)C)c4ccc(Cl)cc4)c(F)c3)c2c1C [Compound 18w] ?
Output: class 1

---

system.tested: P450 3A4 (Homo sapiens, UniProt P08684)
Sequence (P08684 whole entry): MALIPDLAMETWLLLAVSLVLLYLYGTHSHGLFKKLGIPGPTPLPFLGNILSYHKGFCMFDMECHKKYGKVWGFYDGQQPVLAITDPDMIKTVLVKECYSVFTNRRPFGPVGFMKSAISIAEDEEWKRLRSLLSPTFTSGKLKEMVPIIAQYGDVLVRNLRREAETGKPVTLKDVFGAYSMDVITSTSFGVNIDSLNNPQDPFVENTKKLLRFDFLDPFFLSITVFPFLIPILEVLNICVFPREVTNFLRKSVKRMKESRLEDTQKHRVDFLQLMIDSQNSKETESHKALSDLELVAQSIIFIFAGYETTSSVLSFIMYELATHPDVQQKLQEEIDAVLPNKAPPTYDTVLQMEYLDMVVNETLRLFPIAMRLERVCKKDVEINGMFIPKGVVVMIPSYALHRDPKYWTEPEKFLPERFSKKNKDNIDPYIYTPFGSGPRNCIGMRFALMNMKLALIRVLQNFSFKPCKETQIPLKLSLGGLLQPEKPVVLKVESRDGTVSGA
assay.comment: P450 inhibition at 10 μM
Type: in vitro ADME
parameter.measured: P450 % inh. at 10 μM 3A4 (%)
State just the number; it will be interpreted in %.

Sample answers from the record:
> print(dat)
                                   compound                            system.tested  val
1  Cc1c[nH]c2ncnc(-c3ccc(NC(=O)Nc4cccc(C(=O)NC(C)C)c4)c(F)c3)c12  P450 3A4 (Homo sapiens, UniProt P08684)   32
2  Cc1[nH]c2ncnc(-c3ccc(NC(=O)N(CCN)c4ccc(Cl)cc4)c(F)c3)c2c1C [Compound 18t]  P450 3A4 (Homo sapiens, UniProt P08684)  −11
3  Cc1[nH]c2ncnc(-c3ccc(NC(=O)N(CCO)c4ccc(Cl)cc4)c(F)c3)c2c1C [Compound 18s]  P450 3A4 (Homo sapiens, UniProt P08684)   16
4  Cc1ccc(N(CCO)C(=O)Nc2ccc(-c3ncnc4[nH]cc(C)c34)cc2)cc1 [Compound 18k]  P450 3A4 (Homo sapiens, UniProt P08684)    5
5  Cc1c[nH]c2ncnc(-c3ccc(NC(=O)N(CCO)c4ccc(F)cc4)cc3)c12 [Compound 18e]  P450 3A4 (Homo sapiens, UniProt P08684)   25

Task: What value of P450 % inh. at 10 μM 3A4 has been reported for the following compound? Cc1c[nH]c2ncnc(-c3ccc(NC(=O)N(CCO)c4ccccc4Cl)cc3)c12 [Compound 18f]
Output: 37

Task: And for Cc1c[nH]c2ncnc(-c3ccc(NC(=O)N(CCO)c4ccccc4)cc3)c12 [Compound 18b] ?
Output: 13

Task: And for COCCN(C(=O)Nc1ccc(-c2ncnc3[nH]c(C)c(C)c23)cc1F)c1ccc(Cl)cc1 [Compound 18x] ?
Output: 52

Task: And for Cc1[nH]c2ncnc(-c3ccc(NC(=O)N(CCN(C)C)c4ccc(Cl)cc4)c(F)c3)c2c1C [Compound 18w] ?
Output: −9
